# study.target: Nav1.8 channels (Homo sapiens)
# experiment.description: Manual patch-clamp, current of stably overexpressed Nav1.8 channels (resting state voltage program)
Strictly below 200 pM in IC50: label 1. Otherwise: label 0.

Worked examples, 4 molecules total:
COc1c([C@@H]2C[C@](C)(C(F)(F)F)S[C@H]2C(=O)Nc2ccc3c(c2)COB3O)ccc(F)c1F [Compound 119-A]	label 0
COc1c([C@@H]2C[C@](C)(C(F)(F)F)S[C@H]2C(=O)Nc2cccc(N=[N+]=[N-])c2)ccc(F)c1F [a-29-A]	label 1
COc1c([C@@H]2C[C@](C)(C(F)(F)F)SC2C(=O)Nc2ccnc([N+](=O)[O-])c2)ccc(F)c1F (stereo in doubt) [a-7-A]	label 1
COc1c([C@@H]2C[C@](C)(C(F)(F)F)S[C@H]2C(=O)Nc2cccc(B3OC(=O)CN(C)CC(=O)O3)c2)ccc(F)c1F [a-35-A]	label 0

For COc1c([C@@H]2C[C@](C)(C(F)(F)F)S[C@H]2C(=O)Nc2ccnc(NC#N)c2)ccc(F)c1F [a-34-A] , is the recorded IC50 below the cut-off of 200 pM?
label 1

Does this molecule meet the criterion IC50 < 200 pM? COc1c([C@@H]2C[C@](C)(C(F)(F)F)S[C@H]2C(=O)Nc2cccc(S(=O)(=O)N=[N+]=[N-])c2)ccc(F)c1F [a-65-A]
label 1

* * *

# experiment.description: Pharmacokinetic study in SD rats
# Type: in vivo
# condition.details: male, rat, plasma, Oral administration, 10 mg/kg
# Procedure: Experimental Example 2: Pharmacokinetic study of compounds in SD rats Experimental animals: SD rats, male, 6-8 weeks old. […] Sample monitoring: The concentrations of the designated compound drugs in plasma were determined by the LC-MS/MS method; the main pharmacokinetic parameters were calculated using the Winnolin 8.3 non-compartmental model.
property: Tmax

Give Tmax for the following compound: COc1c(C2CC(C)(C(F)(F)F)SC2C(=O)Nc2ccnc(C(N)=O)c2)ccc(F)c1F (stereo not shown) [Compound 139]
4 h

* * *

# experiment.description: Tissue distribution study (dorsal root ganglia) in ICR mice
# Format: in vivo
# condition.details: male, mouse, oral administration 20 mg/kg, Time 12 h
Below, each of the molecules is paired with its reported concentration at 12 h value.
State the answer as a number, implicitly in ng/g.

Check out these entries, answers already filled in.
COc1c([C@@H]2C[C@](C)(C(F)(F)F)S[C@H]2C(=O)Nc2cccc(S(N)(=O)=O)c2)ccc(F)c1F	635
COc1c([C@@H]2C[C@](C)(C(F)(F)F)S[C@H]2C(=O)Nc2ccc3nnnn3c2)ccc(F)c1F	2720
COc1c(C2CC(C)(C(F)(F)F)SC2C(=O)Nc2ccnc(C(N)=O)c2)ccc(F)c1F (single isomer, unassigned)	2600

For the molecule "COc1c([C@@H]2C[C@](C)(C(F)(F)F)S[C@H]2C(=O)Nc2ccc3c(c2)COB3O)ccc(F)c1F" , report concentration at 12 h.
199

* * *

# study.target: Nav1.8 channels (Homo sapiens, UniProt Q9Y5Y9)
# Construct: expressed in transfected cells
# Sequence (Q9Y5Y9 whole entry): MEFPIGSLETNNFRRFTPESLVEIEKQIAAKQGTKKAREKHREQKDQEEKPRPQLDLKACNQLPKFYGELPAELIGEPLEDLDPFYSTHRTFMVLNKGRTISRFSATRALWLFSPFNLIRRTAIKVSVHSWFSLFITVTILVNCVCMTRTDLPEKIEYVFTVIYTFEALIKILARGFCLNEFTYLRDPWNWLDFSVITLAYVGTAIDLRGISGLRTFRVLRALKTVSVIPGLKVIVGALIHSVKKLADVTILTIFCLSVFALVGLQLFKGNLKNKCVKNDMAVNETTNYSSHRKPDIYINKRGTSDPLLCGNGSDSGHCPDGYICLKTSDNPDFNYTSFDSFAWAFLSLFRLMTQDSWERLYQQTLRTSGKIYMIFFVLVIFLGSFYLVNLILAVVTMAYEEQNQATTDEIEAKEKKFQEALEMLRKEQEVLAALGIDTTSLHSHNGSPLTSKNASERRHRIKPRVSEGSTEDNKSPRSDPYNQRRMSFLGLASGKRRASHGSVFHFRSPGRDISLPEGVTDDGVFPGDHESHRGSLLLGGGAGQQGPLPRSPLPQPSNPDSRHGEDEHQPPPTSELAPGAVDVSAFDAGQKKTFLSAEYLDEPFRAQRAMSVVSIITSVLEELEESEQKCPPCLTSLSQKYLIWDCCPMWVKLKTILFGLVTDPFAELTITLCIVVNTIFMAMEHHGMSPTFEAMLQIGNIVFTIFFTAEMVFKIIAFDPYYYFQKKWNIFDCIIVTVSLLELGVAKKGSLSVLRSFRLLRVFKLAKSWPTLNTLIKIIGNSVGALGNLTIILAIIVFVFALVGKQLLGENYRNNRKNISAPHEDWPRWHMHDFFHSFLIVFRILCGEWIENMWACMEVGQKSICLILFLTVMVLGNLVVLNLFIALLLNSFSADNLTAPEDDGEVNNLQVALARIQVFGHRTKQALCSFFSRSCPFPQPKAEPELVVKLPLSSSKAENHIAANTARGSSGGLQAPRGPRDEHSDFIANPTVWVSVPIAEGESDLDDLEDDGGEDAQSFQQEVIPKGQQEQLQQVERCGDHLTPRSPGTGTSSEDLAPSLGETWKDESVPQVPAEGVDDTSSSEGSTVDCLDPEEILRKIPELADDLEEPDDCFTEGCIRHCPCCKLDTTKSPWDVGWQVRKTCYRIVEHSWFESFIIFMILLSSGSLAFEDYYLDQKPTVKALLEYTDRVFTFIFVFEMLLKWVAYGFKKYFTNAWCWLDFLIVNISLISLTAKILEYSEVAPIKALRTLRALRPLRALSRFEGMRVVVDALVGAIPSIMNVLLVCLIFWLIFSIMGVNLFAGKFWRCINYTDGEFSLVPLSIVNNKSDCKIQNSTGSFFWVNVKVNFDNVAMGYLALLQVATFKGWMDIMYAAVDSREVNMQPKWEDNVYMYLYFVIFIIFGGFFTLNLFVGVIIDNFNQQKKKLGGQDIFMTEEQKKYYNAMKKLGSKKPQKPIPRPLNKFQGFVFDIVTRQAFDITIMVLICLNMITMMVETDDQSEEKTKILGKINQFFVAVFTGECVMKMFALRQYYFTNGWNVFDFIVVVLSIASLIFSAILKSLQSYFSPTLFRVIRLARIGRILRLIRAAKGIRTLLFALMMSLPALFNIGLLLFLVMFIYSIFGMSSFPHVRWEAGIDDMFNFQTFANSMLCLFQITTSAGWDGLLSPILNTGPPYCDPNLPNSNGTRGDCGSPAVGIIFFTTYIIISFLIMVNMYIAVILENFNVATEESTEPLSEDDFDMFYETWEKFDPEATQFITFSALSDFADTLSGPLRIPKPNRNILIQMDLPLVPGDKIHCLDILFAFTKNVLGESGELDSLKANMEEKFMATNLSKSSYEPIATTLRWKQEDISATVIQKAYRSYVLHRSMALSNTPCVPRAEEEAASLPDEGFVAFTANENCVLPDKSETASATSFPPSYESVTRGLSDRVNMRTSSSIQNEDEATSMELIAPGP
# experiment.description: Manual patch-clamp, current of stably overexpressed Nav1.8 channels (resting state voltage program)
# Assay type: cell-based
# condition.details: concentration of 10 nM, read-out: Inhibition rate %
property: inhibition at 0.01 µM
Report as: number unit

Fill in inhibition at 0.01 µM for record COc1c(C2CC(C)(C(F)(F)F)SC2C(=O)Nc2cccc(NS(=O)(=O)CCN)c2)ccc(F)c1F (stereo not drawn) [a-25]
96.5%

Entry COc1c([C@@H]2C[C@](C)(C(F)(F)F)S[C@H]2C(=O)Nc2ccc(=O)[nH]n2)ccc(F)c1F [a-3-A] needs its inhibition at 0.01 µM filled in; supply it.
80.2%

Give the value of inhibition at 0.01 µM reported for the following: COc1c(C2CC(C)(C(F)(F)F)SC2C(=O)Nc2ccc(B(O)O)cc2)ccc(F)c1F (stereo not drawn) [Compound 82]
81.1%

* * *

# experiment.description: Pharmacokinetic study in ICR mice
# Assay type: in vivo
# condition.details: male, mouse, plasma, Oral administration, 10 mg/kg
property: AUC(0-inf) (ng·h/mL)
API: value field is a number in ng·h/mL; no unit string.

COc1c([C@@H]2C[C@](C)(C(F)(F)F)S[C@H]2C(=O)Nc2ccc(F)c(OS(N)(=O)=O)c2)ccc(F)c1F	22900
COc1c([C@@H]2C[C@](C)(C(F)(F)F)S[C@H]2C(=O)Nc2ccnc(N=[N+]=[N-])c2)ccc(F)c1F	15400
COc1c([C@@H]2C[C@](C)(C(F)(F)F)S[C@H]2C(=O)Nc2ccc3nnnn3c2)ccc(F)c1F	12500

Here is the next item to consider.
Check the records and state AUC(0-inf) for "COc1c([C@@H]2C[C@](C)(C(F)(F)F)S[C@H]2C(=O)Nc2ccnc(C#N)c2)ccc(F)c1F"
18600

* * *

# experiment.description: Pharmacokinetic study in SD rats
# Assay type: in vivo
# condition.details: male, rat, plasma, Oral administration, 10 mg/kg
property: Cmax (ng/mL)
Field: numeric (ng/mL). Do not append units.

Supply Cmax value. Item: COc1c(C2CC(C)(C(F)(F)F)SC2C(=O)Nc2ccnc(C(N)=O)c2)ccc(F)c1F (stereo not shown) [Compound 139]
724

* * *

# experiment.description: Pharmacokinetic study in SD rats
# Type: in vivo
# condition.details: male, rat, plasma, Oral administration, 10 mg/kg
property: AUC(0-inf) (ng·h/mL)
Provide the reading as a plain figure in ng·h/mL.

Using known records, supply AUC(0-inf) for COc1c(C2CC(C)(C(F)(F)F)SC2C(=O)Nc2ccnc(C(N)=O)c2)ccc(F)c1F (stereo not shown)
9310

* * *

Listed next: entries and their corresponding pIC50.
# study.target: Nav1.8 channels (Homo sapiens)
# experiment.description: Manual patch-clamp, current of stably overexpressed Nav1.8 channels (resting state voltage program)
A value of pIC50 is the negative decimal logarithm of a concentration given in moles per litre.

COc1c([C@@H]2C[C@](C)(C(F)(F)F)S[C@H]2C(=O)Nc2ccnc(S(=O)(=O)N=[N+]=[N-])c2)ccc(F)c1F [a-66-A]	9.59

Specify reported pIC50 for the compound shown: COc1c(C2CC(C)(C(F)(F)F)SC2C(=O)Nc2ccc(F)c(B(O)O)c2)ccc(F)c1F (stereo not drawn) [Compound 19]
9.48

Input COc1c([C@@H]2C[C@](C)(C(F)(F)F)S[C@H]2C(=O)Nc2ccnc(SC#N)c2)ccc(F)c1F [a-80-A] , output reported pIC50.
9.72

* * *

Listed below: AUC(0-inf) values for each entry.
# experiment.description: Pharmacokinetic study in ICR mice
# Format: in vivo
# condition.details: male, mouse, plasma, iv, Injection (i.v.), 2 mg/kg
Number in ng·h/mL, nothing else.

Below: 3 compounds and their reported AUC(0-inf).
COc1c(C2CC(C)(C(F)(F)F)SC2C(=O)Nc2ccnc(C(N)=O)c2)ccc(F)c1F (single isomer, unassigned) [Compound 139-A]	3080
COc1c([C@@H]2C[C@](C)(C(F)(F)F)S[C@H]2C(=O)Nc2ccnc(C#N)c2)ccc(F)c1F [Compound 242-A]	3480
COc1c([C@@H]2C[C@](C)(C(F)(F)F)S[C@H]2C(=O)Nc2ccc(F)c(OS(N)(=O)=O)c2)ccc(F)c1F [a-32-A]	7390

Let us move to another entry and its AUC(0-inf).
Return value of AUC(0-inf) for input COc1c([C@@H]2C[C@](C)(C(F)(F)F)S[C@H]2C(=O)Nc2ccn3nncc3c2)ccc(F)c1F [Compound 246-A] , no commentary.
1400

* * *

Readings of inhibition at 0.001 µM for the listed compounds
# study.target: Nav1.8 channels (Homo sapiens, UniProt Q9Y5Y9)
# Construct: expressed in transfected cells
# experiment.description: Manual patch-clamp, current of stably overexpressed Nav1.8 channels (resting state voltage program)
# Type: cell-based
# condition.details: concentration of 1 nM, read-out: Inhibition rate %
State just the number; it will be interpreted in %.

Example results:
COc1c([C@@H]2C[C@](C)(C(F)(F)F)S[C@H]2C(=O)Nc2ccnc(C(F)F)c2)ccc(F)c1F	87.8
C=CC(=O)Nc1cc(NC(=O)[C@@H]2S[C@@](C)(C(F)(F)F)C[C@H]2c2ccc(F)c(F)c2OC)ccn1	62.7
COc1c([C@@H]2C[C@](C)(C(F)(F)F)S[C@H]2C(=O)Nc2ccc(F)c(/C=C(\C#N)C(N)=O)c2)ccc(F)c1F	51.5

For Nav1.8 channels (Homo sapiens, UniProt Q9Y5Y9), give the measured inhibition at 0.001 µM of the entry "COc1c([C@@H]2C[C@](C)(C(F)(F)F)S[C@H]2C(=O)Nc2ccc3nnnn3c2)ccc(F)c1F"
86.9

State the measured inhibition at 0.001 µM (Nav1.8 channels (Homo sapiens, UniProt Q9Y5Y9)) of COc1c(C2CC(C)(C(F)(F)F)SC2C(=O)Nc2ccc(F)c(N=S(C)(C)=O)c2)ccc(F)c1F (stereo not shown)
70.9

Tell me its inhibition at 0.001 µM on Nav1.8 channels (Homo sapiens, UniProt Q9Y5Y9): "COc1c([C@@H]2C[C@](C)(C(F)(F)F)S[C@H]2C(=O)Nc2ccc(N)c(S(N)(=O)=O)c2)ccc(F)c1F"
81.6

Report inhibition at 0.001 µM under test system Nav1.8 channels (Homo sapiens, UniProt Q9Y5Y9) for COc1c([C@@H]2C[C@](C)(C(F)(F)F)S[C@H]2C(=O)Nc2cccc(NS(=O)(=O)CC(C)N)c2)ccc(F)c1F (stereo partly shown) .
66.4
